molecular target: D(2) dopamine receptor (Rattus norvegicus) (UniProt P61169); assay: Compound at 10E-5 M was tested in vitro for binding affinity towards dopamine receptor D2 in rat striatal membrane by using [3H]spiperone as radioligand; type: cell membranes; conditions: Striatum
Sequence (P61169 whole entry): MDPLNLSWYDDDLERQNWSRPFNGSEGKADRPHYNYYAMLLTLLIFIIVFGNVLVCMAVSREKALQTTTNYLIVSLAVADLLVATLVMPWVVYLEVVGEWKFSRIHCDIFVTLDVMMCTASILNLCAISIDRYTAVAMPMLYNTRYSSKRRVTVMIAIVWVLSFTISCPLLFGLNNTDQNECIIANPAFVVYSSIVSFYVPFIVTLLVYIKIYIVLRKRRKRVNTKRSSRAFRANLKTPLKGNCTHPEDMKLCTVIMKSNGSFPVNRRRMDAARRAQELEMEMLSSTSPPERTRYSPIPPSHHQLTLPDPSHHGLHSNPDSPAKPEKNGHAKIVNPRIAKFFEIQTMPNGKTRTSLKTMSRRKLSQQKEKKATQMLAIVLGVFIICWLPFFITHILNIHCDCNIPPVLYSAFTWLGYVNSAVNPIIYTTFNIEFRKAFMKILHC
observed.property: inhibition (%)

{"molecule": "CCCN1CCCC2c3nc(N)sc3CCC21 (stereo in doubt; 28)", "observed.property": "inhibition", "unit.of.measurement": "%", "readout.value": 16}
{"molecule": "CCCN1CCC=C2c3nc(N)sc3CCCC21 (stereo not given)", "observed.property": "inhibition", "unit.of.measurement": "%", "readout.value": 18}
{"molecule": "Nc1nc2c(s1)CCC1NCCCC21 (stereo in doubt; 27)", "observed.property": "inhibition", "unit.of.measurement": "%", "readout.value": 10}
{"molecule": "Nc1nc2c(s1)CCC1NCCCC21 (stereo in doubt; 26)", "observed.property": "inhibition", "unit.of.measurement": "%", "readout.value": 14}
{"molecule": "CCCN1CCCC2c3nc(N)sc3CCCC21 (stereo not given)", "observed.property": "inhibition", "unit.of.measurement": "%", "readout.value": 10}

Attribution: ChEMBL document CHEMBL1125885
